Molecular target: T1, Macaca fascicularis IL2Rγ extracellular domain expressed with a C-terminal myc-myc-hexahistidine tag (Macaca fascicularis)
T1 construct: also called mfIL-2Rg-MMH; mfIL-2RG-MMH
T1 chain: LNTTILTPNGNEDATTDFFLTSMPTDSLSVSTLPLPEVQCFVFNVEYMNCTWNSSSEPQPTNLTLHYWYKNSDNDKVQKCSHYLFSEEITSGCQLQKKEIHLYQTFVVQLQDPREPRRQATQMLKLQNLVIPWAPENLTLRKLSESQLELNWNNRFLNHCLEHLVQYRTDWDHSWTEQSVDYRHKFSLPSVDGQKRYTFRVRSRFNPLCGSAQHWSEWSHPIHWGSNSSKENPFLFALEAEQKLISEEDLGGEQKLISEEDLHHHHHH
Test: SPR Biacore 4000, mAb captured by anti-hFc, 37C, dissociation in PBS-T pH 6.0
Measure: t1/2 (min)
Numbers only, in min.

Illustrative cases are given below, each with its answer.
* H4H12886P (antibody, human IgG4 S228P, kappa, V domains shown, anti-IL2Rγ monoclonal antibody expressed with human IgG4 Fc) VH: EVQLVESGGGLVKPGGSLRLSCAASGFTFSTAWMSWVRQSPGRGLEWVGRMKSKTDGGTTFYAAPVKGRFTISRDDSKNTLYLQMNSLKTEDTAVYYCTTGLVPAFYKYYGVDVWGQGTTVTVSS VL: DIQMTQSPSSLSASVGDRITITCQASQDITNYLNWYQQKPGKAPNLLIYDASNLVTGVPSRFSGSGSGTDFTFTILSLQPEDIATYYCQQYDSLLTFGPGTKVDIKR | 6
* H4H12871P (antibody, human IgG4 S228P, kappa, V domains shown, anti-IL2Rγ monoclonal antibody expressed with human IgG4 Fc; also called REGN9434) VH: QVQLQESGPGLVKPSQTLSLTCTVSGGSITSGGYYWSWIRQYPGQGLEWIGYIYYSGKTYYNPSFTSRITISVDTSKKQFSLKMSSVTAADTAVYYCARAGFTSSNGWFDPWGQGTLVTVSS VL: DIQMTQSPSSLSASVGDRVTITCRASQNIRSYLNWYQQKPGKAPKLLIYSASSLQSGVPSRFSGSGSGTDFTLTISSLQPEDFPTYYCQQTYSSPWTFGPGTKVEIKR | 5
* H4H12889P (antibody, human IgG4 S228P, kappa, V domains shown, anti-IL2Rγ monoclonal antibody expressed with human IgG4 Fc; also called REGN7257) VH: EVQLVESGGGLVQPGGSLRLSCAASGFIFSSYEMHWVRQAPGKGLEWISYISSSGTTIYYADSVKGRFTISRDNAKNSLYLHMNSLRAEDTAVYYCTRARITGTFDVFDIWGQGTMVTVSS VL: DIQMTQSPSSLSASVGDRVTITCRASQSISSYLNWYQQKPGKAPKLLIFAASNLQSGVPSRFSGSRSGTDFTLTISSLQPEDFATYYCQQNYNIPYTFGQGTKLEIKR | 6
* H4H12900P (antibody, human IgG4 S228P, kappa, V domains shown, anti-IL2Rγ monoclonal antibody expressed with human IgG4 Fc) VH: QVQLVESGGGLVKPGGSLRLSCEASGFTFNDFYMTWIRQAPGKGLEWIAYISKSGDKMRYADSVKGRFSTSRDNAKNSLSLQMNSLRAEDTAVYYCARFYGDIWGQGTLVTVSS VL: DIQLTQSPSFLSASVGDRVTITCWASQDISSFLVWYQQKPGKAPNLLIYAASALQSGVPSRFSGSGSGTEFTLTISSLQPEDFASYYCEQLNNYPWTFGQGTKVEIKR | 4
* H4H12890P (antibody, human IgG4 S228P, kappa, V domains shown, anti-IL2Rγ monoclonal antibody expressed with human IgG4 Fc) VH: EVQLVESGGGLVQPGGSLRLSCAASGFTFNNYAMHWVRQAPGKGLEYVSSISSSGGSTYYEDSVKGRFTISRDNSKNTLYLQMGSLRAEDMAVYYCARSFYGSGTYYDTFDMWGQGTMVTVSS VL: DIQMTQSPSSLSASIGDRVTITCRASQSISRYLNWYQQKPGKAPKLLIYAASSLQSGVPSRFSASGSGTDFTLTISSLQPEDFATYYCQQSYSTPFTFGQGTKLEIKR | 4

Please report t1/2 for every entry that follows.
1. H4H12884P (antibody, human IgG4 S228P, kappa, V domains shown, anti-IL2Rγ monoclonal antibody expressed with human IgG4 Fc) VH: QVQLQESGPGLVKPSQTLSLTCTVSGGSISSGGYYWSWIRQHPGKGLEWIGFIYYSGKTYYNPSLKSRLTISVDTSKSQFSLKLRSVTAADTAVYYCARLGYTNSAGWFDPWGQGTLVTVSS VL: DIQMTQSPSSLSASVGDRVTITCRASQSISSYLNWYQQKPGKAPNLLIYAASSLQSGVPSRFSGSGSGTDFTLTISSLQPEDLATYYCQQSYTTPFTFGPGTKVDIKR
2. H4H12899P (antibody, human IgG4 S228P, kappa, V domains shown, anti-IL2Rγ monoclonal antibody expressed with human IgG4 Fc) VH: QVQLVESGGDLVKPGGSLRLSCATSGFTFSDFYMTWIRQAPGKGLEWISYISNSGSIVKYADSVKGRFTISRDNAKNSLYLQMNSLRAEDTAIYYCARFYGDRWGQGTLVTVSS VL: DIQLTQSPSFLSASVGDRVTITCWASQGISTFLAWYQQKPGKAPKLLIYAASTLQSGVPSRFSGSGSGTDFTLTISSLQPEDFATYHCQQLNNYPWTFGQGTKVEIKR
3. H4H12874P (antibody, human IgG4 S228P, kappa, V domains shown, anti-IL2Rγ monoclonal antibody expressed with human IgG4 Fc) VH: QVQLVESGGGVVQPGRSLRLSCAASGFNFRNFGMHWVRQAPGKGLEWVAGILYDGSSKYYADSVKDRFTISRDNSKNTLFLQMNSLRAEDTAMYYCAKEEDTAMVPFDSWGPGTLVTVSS VL: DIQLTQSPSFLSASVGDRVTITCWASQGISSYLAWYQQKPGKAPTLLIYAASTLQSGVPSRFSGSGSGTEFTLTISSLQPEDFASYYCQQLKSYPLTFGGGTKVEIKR

Result:
1: 3.4; 2: 5; 3: 5

Please report t1/2 for every entry that follows.
1. H4H13538P (antibody, human IgG4 S228P, kappa, V domains shown, anti-IL2Rγ monoclonal antibody expressed with human IgG4 Fc) VH: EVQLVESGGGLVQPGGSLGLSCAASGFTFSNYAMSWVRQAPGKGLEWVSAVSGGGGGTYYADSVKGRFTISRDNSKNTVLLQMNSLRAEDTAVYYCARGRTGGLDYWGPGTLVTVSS VL: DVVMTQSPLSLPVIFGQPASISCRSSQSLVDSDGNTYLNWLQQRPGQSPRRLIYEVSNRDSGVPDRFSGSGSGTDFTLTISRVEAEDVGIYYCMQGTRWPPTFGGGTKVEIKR
2. H4H12858P (antibody, human IgG4 S228P, kappa, V domains shown, anti-IL2Rγ monoclonal antibody expressed with human IgG4 Fc; also called REGN9433) VH: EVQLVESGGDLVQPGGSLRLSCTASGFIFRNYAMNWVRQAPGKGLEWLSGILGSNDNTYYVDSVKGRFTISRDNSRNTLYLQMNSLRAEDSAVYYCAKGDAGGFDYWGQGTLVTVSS VL: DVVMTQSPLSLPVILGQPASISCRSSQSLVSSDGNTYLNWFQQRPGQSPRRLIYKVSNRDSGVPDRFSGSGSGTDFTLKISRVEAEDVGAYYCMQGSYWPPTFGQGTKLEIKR
3. H4H12863P (antibody, human IgG4 S228P, kappa, V domains shown, anti-IL2Rγ monoclonal antibody expressed with human IgG4 Fc) VH: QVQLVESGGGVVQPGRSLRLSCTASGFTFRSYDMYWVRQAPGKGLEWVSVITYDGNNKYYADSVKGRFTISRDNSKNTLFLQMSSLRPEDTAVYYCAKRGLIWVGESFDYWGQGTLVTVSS VL: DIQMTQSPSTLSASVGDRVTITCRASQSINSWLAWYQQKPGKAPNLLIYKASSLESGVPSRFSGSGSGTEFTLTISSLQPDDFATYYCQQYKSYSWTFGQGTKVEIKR

Result:
1. 8
2. 7
3. 6

Every entry's value here was drawn from patent US20200247894A1.
